biological target: T1, human CD33 extracellular domain (human, UniProt P20138 18-259); experiment: BLI Octet, IgG loaded;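 also: IgGs captured on AHC biosensors, exposed to 100 nM antigen for 3 min association then 3 min dissociation in buffer, kinetics fitted with a 1:1 binding model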
T1 construct: soluble monomeric ECD; also called human CD33 ECD; hCD33
Parameter measured: koff
Answer format: number, then unit.

# get_value(readout='koff', item= ADI-11812 IgG (antibody, V domains shown, IgG; also called Ab24) VH: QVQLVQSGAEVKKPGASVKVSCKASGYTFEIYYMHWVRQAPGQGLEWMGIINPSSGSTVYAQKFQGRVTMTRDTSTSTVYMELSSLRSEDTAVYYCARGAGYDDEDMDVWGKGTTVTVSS VL: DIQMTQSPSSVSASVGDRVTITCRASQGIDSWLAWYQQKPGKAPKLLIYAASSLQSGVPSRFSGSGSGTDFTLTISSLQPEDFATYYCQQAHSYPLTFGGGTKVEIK )
0.000315 s⁻¹
